Tested on: S. aureus ATCC13709
TEST_DESCRIPTION: In vitro antibacterial activity (MIC assay), broth microdilution
Format: cell-based
CONDITION_LABEL: Staphylococcus aureus, ATCC13709; read-out: S. aureus ATCC13709 MIC
# MIC listing for each entry below
QUANTITY_MEASURED: MIC (µg/mL)

• COc1ccc2nccc(-n3cc4c(n3)CCC(NC(=O)c3cc5c(cc3C(F)(F)F)SCC(=O)N5)C4)c2n1 (stereo not shown) = 0.125
• COc1ccc2nccc(-n3cc4c(n3)CCC(NCc3cc5c(cc3Cl)OCCO5)C4)c2c1 (stereo not shown) = 0.5
• COc1ccc2nccc(-n3cc4c(n3)CCC(N(CC(=O)OC(C)(C)C)Cc3ccc5c(c3)NC(=O)CS5)C4)c2n1 (stereo not shown) = 4
• COc1ccc2nccc(-n3cc4c(n3)CCC(NC(=O)c3c(F)cc5c(c3F)NC(=O)CS5)C4)c2c1 (stereo not shown) = 0.125
• COc1ccc2nccc(-n3cc4c(n3)CCC(NCc3ccc5c(n3)NC(=O)CO5)C4)c2c1 (stereo not shown) = 1
• COc1ccc2nccc(-n3cc4c(n3)CC(NC(=O)c3ccc5c(c3)NC(=O)CS5)CC4)c2c1 (stereo not shown) = 0.125
• COc1ccc2nccc(-n3cc4c(n3)CCC(NC(=O)c3cc5c(cc3Br)SCC(=O)N5)C4)c2n1 (stereo not shown) = 0.125

---

Test system: S. aureus ATCC13709
TEST_DESCRIPTION: In vitro antibacterial activity (MIC assay), broth microdilution
Type: cell-based
CONDITION_LABEL: Staphylococcus aureus, ATCC13709; read-out: S. aureus ATCC13709 MIC
Please respond with Fulfilled when measured MIC is strictly beneath 0.5 µg/mL, and with Not fulfilled in all other cases.

* O=C1CSc2cc(F)c(C(=O)NC3CCc4nn(-c5cccc6ccccc56)cc4C3)cc2N1 (stereo not shown) | Not fulfilled
* COc1ccc2nccc(-n3cc4c(n3)CCC(NCc3cc(F)c5c(c3)OCCO5)C4)c2n1 (stereo not shown) | Fulfilled
* COc1ccc2nccc(-n3cc4c(n3)CCC(NC(=O)c3cc5c(cc3OC)SCC(=O)N5)C4)c2n1 (stereo not shown) | Not fulfilled
* COc1ccc2nccc(-n3cc4c(n3)CCC(NC(=O)c3cc5c(cc3F)SCC(=O)N5)C4)c2n1 (stereo not shown) | Fulfilled
* COc1ccc2nccc(-n3cc4c(n3)CCC(NC(=O)c3nc5ccccc5[nH]3)C4)c2c1 (stereo not shown) | Not fulfilled
* COc1ccc2nccc(-n3cc4c(n3)CCC(NC(=O)c3cc5ccccc5o3)C4)c2c1 (stereo not shown) | Not fulfilled
* COc1ccc2nccc(-n3cc4c(n3)CCC(NC(=O)/C=C/c3cc([N+](=O)[O-])ccc3Cl)C4)c2n1 (stereo not shown) | Not fulfilled
* COc1ccc2nccc(-n3cc4c(n3)CCC(NCc3ccc5c(c3)NC(=O)CS5)C4)c2n1 (stereo not shown) | Fulfilled
* COc1ccc2nccc(-n3cc4c(n3)CCN(CC(=O)c3ccc5c(c3)NC(=O)CO5)C4)c2c1 | Not fulfilled
* COc1ccc2nccc(-n3cc4c(n3)CCC(NCCCc3ccc(Cl)c(Cl)c3)C4)c2n1 (stereo not shown) | Fulfilled
* COc1ccc2nccc(-n3cc4c(n3)CCC(NCc3ccc(N5CCCC5)cc3)C4)c2n1 (stereo not shown) | Not fulfilled
* COc1ccc2nccc(-n3cc4c(n3)CCC(NC(=O)c3cc5cc(F)c(F)cc5[nH]3)C4)c2c1 (stereo not shown) | Not fulfilled
* COc1ccc2nccc(-n3cc4c(n3)CCC(NC(=O)c3ccc5c(c3)OCCO5)C4)c2c1 (stereo not shown) | Not fulfilled
* COc1ccc2nccc(-n3cc4c(n3)CCC(NCc3ccc5c(c3)NC(=O)CS5)C4)c2c1 (stereo not shown) | Fulfilled
* COc1ccc2nccc(-n3cc4c(n3)CCC(NCCCc3ccccc3)C4)c2n1 (stereo not shown) | Fulfilled
* COc1ccc2nccc(-n3ncc4c3CCC(NC(=O)c3cc5c(cc3C)SCC(=O)N5)C4)c2c1 (stereo not shown) | Not fulfilled
* COc1ccc2nccc(-n3cc4c(n3)CCC(NC(=O)c3ccc5c(c3)N(C)C(=O)CS5)C4)c2n1 (stereo not shown) | Not fulfilled
* COc1ccc2nccc(-n3cc4c(n3)CCC(NC(=O)c3ccc5c(c3)OCCCO5)C4)c2n1 (stereo not shown) | Not fulfilled
* COc1ccc2nccc(-n3ncc4c3CCC(NC(=O)c3cc5c(cc3Br)SCC(=O)N5)C4)c2c1 (stereo not shown) | Not fulfilled
* COc1ccc2nccc(-n3cc4c(n3)CC(NC(=O)c3cc5c(cc3F)SCC(=O)N5)CC4)c2c1 (stereo not shown) | Fulfilled
* COc1ccc2nccc(-n3cc4c(n3)CCC(NC(=O)c3cc(F)c5c(c3)OCCO5)C4)c2c1 (stereo not shown) | Not fulfilled
* COc1ccc2nccc(-n3cc4c(n3)CCC(NC(=O)c3cc5c(cc3C(F)(F)F)SCC(=O)N5)C4)c2c1 (stereo not shown) | Fulfilled
* COc1ccc2nccc(-n3cc4c(n3)CCN(C(=O)c3ccc5c(c3)NC(=O)CS5)CC4)c2n1 | Not fulfilled
* COc1ccc2nccc(-n3cc4c(n3)CCC(NCC(=O)c3ccc5c(c3)NC(=O)CO5)C4)c2c1 (stereo not shown) | Fulfilled
